# run.description: AUC (0 to infinity) in NCR nude mouse at 100 mg/kg, po
# Assay type: ADME, organism-based
# Set-up: time infinity, dose 100 mg/kg, route oral
# condition.label: plasma
property.label: AUC(0-inf) (µM·h)
Write down the numeric answer in µM·h and omit the unit.

For the compound O=C(N[C@H](CO)c1ccc(Cl)c(F)c1)N1CCc2cnc(NC3CCOCC3)nc2C1 , report AUC(0-inf). 30

----------
# IC50 per entry for Mitogen-activated protein kinase 1 (Homo sapiens, UniProt P28482)

CC[C@@H](NC(=O)N1CCc2cnc(N[C@@H](C)CO)nc2C1)c1ccc(OC)c(Cl)c1	14 nM
Cc1cc(Nc2ncc3c(n2)CN(C(=O)N[C@H](C)c2ccc(Cl)c(Cl)c2)CC3)ccn1	23 nM
O=C(N[C@H](CO)c1ccc(Cl)c(Cl)c1)N1CCc2cnc(NC3CCOCC3)nc2C1	17 nM
C[C@@H](CO)Nc1ncc2c(n1)CN(C(=O)N[C@H](CO)c1ccc(F)c(Cl)c1)CC2	473 nM
CC[C@H](O)[C@@H](NC(=O)N1CCc2cnc(NC(C)C)nc2C1)c1ccc(F)c(Cl)c1	108 nM
CC(C)Nc1ncc2c(n1)CN(C(=O)N[C@H](CNCCO)c1ccc(F)c(Cl)c1)CC2	2760 nM
CC[C@@H](NC(=O)N1CCc2cnc(N[C@@H](C)CO)nc2C1)c1ccc(Cl)c(Cl)c1	23 nM
C[C@@H](NC(=O)N1CCc2cnc(NC3CCOCC3)nc2C1)c1ccc(Cl)c(F)c1	12 nM

Next compound, IC50 to be filled in.
Please supply the value of reported IC50 for the item COC[C@@H](NC(=O)N1CCc2cnc(NC(C)C)nc2C1)c1ccc(F)c(Cl)c1 368 nM
